Biological target: 5-hydroxytryptamine receptor 6 (Homo sapiens)
Sequence (P50406 whole entry): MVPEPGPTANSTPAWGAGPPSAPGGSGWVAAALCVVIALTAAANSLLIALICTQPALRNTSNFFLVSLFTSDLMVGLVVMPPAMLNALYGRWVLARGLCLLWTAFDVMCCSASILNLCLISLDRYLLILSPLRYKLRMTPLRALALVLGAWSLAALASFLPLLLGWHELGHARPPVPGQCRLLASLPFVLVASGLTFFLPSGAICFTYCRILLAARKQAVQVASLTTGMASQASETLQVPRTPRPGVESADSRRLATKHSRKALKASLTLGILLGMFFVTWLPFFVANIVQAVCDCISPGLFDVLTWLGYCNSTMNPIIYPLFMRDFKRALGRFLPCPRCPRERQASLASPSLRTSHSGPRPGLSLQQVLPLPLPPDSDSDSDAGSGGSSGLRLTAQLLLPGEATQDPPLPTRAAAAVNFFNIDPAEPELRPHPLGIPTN
Experiment: Displacement of [3H]-LSD from human 5-HT6 receptor expressed in HEK293 cells at 1 uM in presence of serotonin incubated for 60 mins
Type: cell-based
Active and inactive are the calls of the source. The rule behind the calls is not given here.

- molecule: "COc1ccc(S(=O)(=O)N2CCC(CCC(=O)c3cc(Cl)c(N)cc3OC)CC2)cc1"
  experimental.system: "5-hydroxytryptamine receptor 6 (Homo sapiens)"
  inhibition: "inactive"
- molecule: "COc1cc(N)c(Cl)cc1C(=O)CCC1CCN(CCNS(=O)(=O)c2ccc(C)cc2)CC1"
  experimental.system: "5-hydroxytryptamine receptor 6 (Homo sapiens)"
  inhibition: "15%"
- molecule: "COc1ccc(S(=O)(=O)CCCN2CCC(CCC(=O)c3cc(Cl)c(N)cc3OC)CC2)cc1"
  experimental.system: "5-hydroxytryptamine receptor 6 (Homo sapiens)"
  inhibition: "33%"
- molecule: "COc1ccc(S(=O)(=O)NCCCN2CCC(CCC(=O)c3cc(Cl)c(N)cc3OC)CC2)cc1"
  experimental.system: "5-hydroxytryptamine receptor 6 (Homo sapiens)"
  inhibition: "inactive"
- molecule: "COc1cc(N)c(Cl)cc1C(=O)CCC1CCN(CCNS(=O)(=O)c2ccc3c(c2)N(C)CCO3)CC1"
  experimental.system: "5-hydroxytryptamine receptor 6 (Homo sapiens)"
  inhibition: "7%"
